test: yeast display, Sf9 membrane polyspecificity reagent, FACS + sequencing; frameworks hold sequencing errors
measured metric: polyreactivity (PSR sort gate)

| sequence input | result |
| --- | --- |
| QVQLVESGGGLVQAGGSLRLSCAASGSIFYTNVMGWYRQAPGKERELVAVISSGGSTYYADSVKGRFTISRDNAKNTVYFQMNSLKPEDTAGYYCNADSVSSPPYYDYWGQGTQVTVSS | high polyreactivity |
| QVQLVESGGGLVQAGGSLRLSCAASGSIFAKYAMGWYRQAPGKESEFVAAIRASGGRTYYADSVKGRFTISRDNAKNTVYLQMNSLKPEDTAVYYCAAHLYSSRSDYDGPRSRRNYWGQGTQVTVSS | high polyreactivity |
